Each recorded value in this set is attributed to patent US20230399312A1.

For each entry below, report its Ki value.
- target-of-assay: recombinant human ALK5 (TGF-βR1) protein (Homo sapiens)
- Sequence (P36897 34-503): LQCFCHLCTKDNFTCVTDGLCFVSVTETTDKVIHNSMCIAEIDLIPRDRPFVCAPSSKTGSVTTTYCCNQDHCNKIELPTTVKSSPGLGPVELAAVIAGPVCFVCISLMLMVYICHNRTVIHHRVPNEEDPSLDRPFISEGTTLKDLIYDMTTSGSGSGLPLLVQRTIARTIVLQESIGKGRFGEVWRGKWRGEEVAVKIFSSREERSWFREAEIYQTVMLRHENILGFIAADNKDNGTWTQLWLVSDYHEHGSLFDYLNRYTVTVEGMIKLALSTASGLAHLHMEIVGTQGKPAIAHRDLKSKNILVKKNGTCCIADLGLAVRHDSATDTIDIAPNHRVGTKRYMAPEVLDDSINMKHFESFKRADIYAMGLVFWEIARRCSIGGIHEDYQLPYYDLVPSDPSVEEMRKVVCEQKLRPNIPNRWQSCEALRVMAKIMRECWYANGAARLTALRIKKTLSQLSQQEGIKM
- experimental-details: Biochemical ALK5 (TGF-βR1) assay to measure pKi (LANCE Ultra ULight kinase assay)
- experimental-setup: apparent pKi, converted from pIC50 by Cheng-Prusoff

Exam item: Give recorded Ki. Cc1cccc(-c2nccc(Nc3ccnc(Nc4ccc(OCCO)cc4)n3)n2)n1
Marked response: 0.398 to 3.16 nM

Exam item: Provide one value: measured Ki of Cc1cccc(-c2nccc(Nc3ccnc(Nc4nc(C)cs4)n3)n2)n1
Marked response: 3.98 to 31.6 nM

Exam item: Provide Ki value for the following compound: Cc1cccc(-c2nccc(Nc3ccnc(Nc4ccc(S(=O)(=O)NCCN(C)C)cc4)n3)n2)n1
Marked response: 0.0398 to 0.316 nM

Exam item: Look up and report measured Ki for this entry: COC(=O)c1cnc(-c2cccc(C)n2)nc1Nc1ccnc(Nc2ccc(N)cc2)n1
Marked response: 0.398 to 3.16 nM

Exam item: Return Ki for the following compound: Cc1cccc(-c2nccc(Nc3ccnc(Nc4cncc(C(=O)OCC5CNC5)c4)n3)n2)n1
Marked response: 0.398 to 3.16 nM

Exam item: Identify the reported Ki for the following entry. Cc1cccc(-c2nccc(Nc3ccnc(Nc4ccc(N5CCOCC5)cn4)n3)n2)n1
Marked response: 0.398 to 3.16 nM
